system: pTau; experiment: pTau assay (method not described); assay type: cell-based; details: read-out: pTau
reported metric: IC50 (nM)

O=C(Nc1cncc(-c2ccc(F)cc2F)c1)c1ccnc(NC(=O)C2CC2)c1; 990
O=C(Nc1cncc(N2CCOCC2)c1)c1ccnc(NC(=O)C2CC2)c1; 2000
O=C(Nc1cnccc1-c1ccsc1)c1ccnc(NC(=O)C2CC2)c1; 200

###

tested on: pTau; experiment: pTau assay (method not described); assay type: cell-based; conditions: read-out: pTau
pIC50: −log10 of the molar value.
// reported pIC50 for each item listed
reported metric: pIC50

COc1ccnc(-c2ccccc2)c1NC(=O)c1ccnc(NC(=O)C2CC2)c1; 6.51
CC(C)C(=O)Nc1cc(C(=O)Nc2cnccc2OCC2(C)CC2)ccn1; 7.59
O=C(Nc1c(-c2ccccc2)ccnc1Cl)c1ccnc(NC(=O)C2CC2)c1; 5.09
C[C@@H]1CN(c2ccncc2NC(=O)c2ccnc(NC(=O)C3CC3)c2)C[C@H](C)O1; 6.72

###

// reported IC50 for each item listed
biological target: GSK3α (Homo sapiens, UniProt P49840); assay: biochemical; conditions: second value of the cell; 250 pM enzyme, 20 uM ATP, 20 hours at room temperature; read-out: GSK3β/α (nM): GSK3α IC50
Sequence (P49840 whole entry, species assumed): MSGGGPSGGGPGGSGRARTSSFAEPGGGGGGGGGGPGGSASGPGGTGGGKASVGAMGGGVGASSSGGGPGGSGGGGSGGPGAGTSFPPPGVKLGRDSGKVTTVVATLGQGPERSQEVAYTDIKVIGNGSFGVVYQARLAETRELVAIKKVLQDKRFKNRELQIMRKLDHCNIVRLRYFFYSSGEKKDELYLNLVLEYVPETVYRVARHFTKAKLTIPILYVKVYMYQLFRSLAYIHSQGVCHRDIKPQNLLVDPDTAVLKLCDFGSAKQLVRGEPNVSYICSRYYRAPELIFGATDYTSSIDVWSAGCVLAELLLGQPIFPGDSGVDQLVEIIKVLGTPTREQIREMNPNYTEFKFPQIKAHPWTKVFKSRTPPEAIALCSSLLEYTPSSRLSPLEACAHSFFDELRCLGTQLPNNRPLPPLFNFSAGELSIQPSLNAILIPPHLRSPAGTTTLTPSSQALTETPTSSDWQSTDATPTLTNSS
reported metric: IC50 (nM)

O=C(Nc1cnccc1C1CCC1)c1ccnc(NC(=O)C2CC2)c1; 3
CC1(C)CN(c2ccncc2NC(=O)c2ccnc(NC(=O)C3CC3)c2)CCO1; 0.39
O=C(Nc1cnccn1)c1ccnc(NC(=O)C2CC2)c1; 2.9
CC(C)(C)C(=O)Nc1cc(C(=O)Nc2cncc(-c3cccc(F)c3F)c2)ccn1; 14

###

target: GSK3α (Homo sapiens); assay: biochemical; conditions: second value of the cell; 250 pM enzyme, 20 uM ATP, 20 hours at room temperature; read-out: GSK3β/α (nM): GSK3α IC50
// reported IC50 for each item listed
reported metric: IC50 (nM)

CCC1(c2cc(Cl)ncc2NC(=O)c2ccnc(NC(=O)C(C)C)c2)OCCO1; 0.12
O=C(Nc1cncc(C2CCC2)c1)c1ccnc(NC(=O)C2CC2)c1; 1.75
O=C(Nc1cnccc1-c1ccc(Cl)cc1)c1ccnc(NC(=O)C2CCC(F)(F)C2)c1 (stereo not shown); 0.9
O=C(Nc1cncc(-c2ccccc2OC(F)(F)F)c1)c1ccnc(NC(=O)C2CC2)c1; 1.75
O=C(Nc1cncc(-c2cccc(F)c2)c1)c1ccnc(NC(=O)C2CC2)c1; 1.1
N#Cc1cscc1-c1cncc(NC(=O)c2ccnc(NC(=O)C3CC3)c2)c1; 0.76
O=C(Nc1cncc(-c2ccccc2)c1)c1ccnc(NC(=O)C2CCC(F)(F)C2)c1 (stereo not shown); 0.33
COc1ccc(-c2ccncc2NC(=O)c2ccnc(NC(=O)C3CC3)c2)c(F)c1; 0.58
O=C(Nc1cncc(-c2ccc(F)cc2F)c1)c1ccnc(NC(=O)C2CC2)c1; 1.3
O=C(Nc1cncc(-c2cncc(F)c2)c1)c1ccnc(NC(=O)C2CC2)c1; 0.6
CCOc1cccc(-c2cncc(NC(=O)c3ccnc(NC(=O)C4CC4)c3)c2)c1Cl; 2.5
CCOc1ccncc1NC(=O)c1ccnc(NC(=O)C2CCCC2)c1; 0.41
CC(C)(C)C(=O)Nc1cc(C(=O)Nc2cnccc2N2CCC(F)(F)CC2)ccn1; 3.1
O=C(Nc1cncc(-c2ccc(F)nc2)c1)c1ccnc(NC(=O)C2CC2)c1; 1.7
C[C@@H]1COCCN1c1ccncc1NC(=O)c1ccnc(NC(=O)C2CC2)c1; 0.21
O=C(Nc1cnccc1-c1ccc(OC(F)(F)F)cc1F)c1ccnc(NC(=O)C2CC2)c1; 5
O=C(Nc1cncc(-c2csc3ccccc23)c1)c1ccnc(NC(=O)C2CC2)c1; 7
Cc1ccncc1NC(=O)c1ccnc(NC(=O)C2CC2)c1; 22
O=C(Nc1cncc(-n2ccnc2)c1)c1ccnc(NC(=O)C2CC2)c1; 1

###

system: pTau; assay: pTau assay (method not described); assay type: cell-based; settings: read-out: pTau
pIC50: −log10 of the molar value.
// reported pIC50 for each item listed
reported metric: pIC50

CC1(C)CC1C(=O)Nc1cc(C(=O)Nc2cnccc2-c2ccccc2)ccn1 (stereo not shown); 6.06
O=C(Nc1cncc(-c2ccccc2)c1)c1ccnc(NC(=O)C2CCCC2)c1; 6.48
CC(C)C(=O)Nc1cc(C(=O)Nc2cncc(-c3ccccc3F)c2)ccn1; 7.07
O=C(Nc1cnccc1N1C2CCC1CC2)c1ccnc(NC(=O)C2CC2)c1; 6.21
O=C(Nc1cncc(-c2ccccc2Cl)c1)c1ccnc(NC(=O)C2CCC(F)(F)C2)c1 (stereo not shown); 7.03
CC(C)C(=O)Nc1cc(C(=O)Nc2cnccc2-c2ccc(Cl)cc2)ccn1; 6.44
O=C(Nc1cnccc1C1CCC1)c1ccnc(NC(=O)C2CC2)c1; 6.42
CC(C)(C)C(=O)Nc1cc(C(=O)Nc2cnccc2N2CCC(F)(F)CC2)ccn1; 6.92

###

test system: pTau; experiment: pTau assay (method not described); assay type: cell-based; details: read-out: pTau
Please respond with rule met when measured IC50 is strictly beneath 90 nM, and with rule not met in all other cases.

Cn1cnc(NC(=O)c2ccnc(NC(=O)C3CC3)c2)c1; rule not met
O=C(Nc1cnc(-c2ccccc2)s1)c1ccnc(NC(=O)C2CC2)c1; rule not met
O=C(Nc1cnccc1-c1ccccc1)c1ccnc(NC(=O)C2CC(F)(F)C2)c1; rule not met
O=C(Nc1cncc(Oc2ccccc2)c1)c1ccnc(NC(=O)C2CC2)c1; rule not met
O=C(Nc1cnccc1N1CCOCC1)c1ccnc(NC(=O)C2CC2)c1; rule met
CC(C)C(=O)Nc1cc(C(=O)Nc2cncc(-c3cc(F)ccc3F)c2)ccn1; rule not met
Cc1ccc(-c2cncc(NC(=O)c3ccnc(NC(=O)C4CC4)c3)c2)cn1; rule not met
CC(O)c1ccncc1NC(=O)c1ccnc(NC(=O)C2CC2)c1 (stereo not shown); rule met
CC(C)(C)C(=O)Nc1cc(C(=O)Nc2cncc(-c3cccc(F)c3F)c2)ccn1; rule not met
COc1ccc(NC(=O)c2ccnc(NC(=O)C3CC3)c2)cn1; rule not met

###

// reported IC50 for each item listed
biological target: GSK3β (Homo sapiens, UniProt P49841); assay: GSK3β kinase assay (Caliper LabChip3000, fluoresceinated peptide substrate); format: biochemical; settings: first value of the cell; 250 pM enzyme, 20 uM ATP, 20 hours at room temperature; read-out: GSK3β/α (nM): GSK3β IC50
Sequence (P49841 whole entry, species assumed): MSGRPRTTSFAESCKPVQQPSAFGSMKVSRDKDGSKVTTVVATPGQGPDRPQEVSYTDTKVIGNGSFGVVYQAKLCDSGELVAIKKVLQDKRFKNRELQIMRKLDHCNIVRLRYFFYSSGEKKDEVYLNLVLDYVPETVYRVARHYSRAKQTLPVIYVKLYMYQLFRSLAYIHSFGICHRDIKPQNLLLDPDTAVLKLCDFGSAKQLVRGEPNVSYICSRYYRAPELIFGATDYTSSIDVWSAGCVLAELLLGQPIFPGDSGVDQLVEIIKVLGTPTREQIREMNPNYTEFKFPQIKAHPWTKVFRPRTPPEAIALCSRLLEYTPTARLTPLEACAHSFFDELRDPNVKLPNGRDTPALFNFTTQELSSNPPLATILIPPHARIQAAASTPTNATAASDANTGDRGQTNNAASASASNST
reported metric: IC50 (nM)

O=C(Nc1cnccc1-c1ccc(C(F)(F)F)cc1C(F)(F)F)c1ccnc(NC(=O)C2CC2)c1; 29
C=C(c1ccccc1)c1ccncc1NC(=O)c1ccnc(NC(=O)C(C)C)c1; 6.1
O=C(Nc1cnccc1I)c1ccnc(NC(=O)C2CC2)c1; 1.4
O=C(Nc1cncc(-c2csc3ccccc23)c1)c1ccnc(NC(=O)C2CC2)c1; 5.1
CC(C)Oc1ccccc1-c1cncc(NC(=O)c2ccnc(NC(=O)C3CC3)c2)c1; 19
CCC1(c2cc(Cl)ncc2NC(=O)c2ccnc(NC(=O)C3CCC(F)(F)C3)c2)OCCO1 (stereo not shown); 0.11
O=C(Nc1cncc(-c2c(F)cccc2F)c1)c1ccnc(NC(=O)C2CC2)c1; 21
O=C(Nc1cncnc1)c1ccnc(NC(=O)C2CC2)c1; 14
O=C(Nc1cncc(-c2ccc(F)nc2)c1)c1ccnc(NC(=O)C2CC2)c1; 6
CN(C)c1ccccc1-c1cncc(NC(=O)c2ccnc(NC(=O)C3CC3)c2)c1; 40
O=C(Nc1cnccc1-c1ccccc1)c1ccnc(NC(=O)C2CC(Cl)C2)c1 (stereo not shown); 0.4
O=C(Nc1cnccc1-c1ccccc1)c1ccnc(NC(=O)[C@@H]2C[C@H]2c2ccccc2)c1 (relative stereo); 1.8
CC(C)C(=O)Nc1cc(C(=O)Nc2cnccc2OCCN2CCCC2)ccn1; 39
O=C(Nc1cncc(-c2ccc(Cl)cc2)c1)c1ccnc(NC(=O)C2CC2)c1; 3.3
O=C(Nc1cncc(-c2cccc(OC(F)F)c2)c1)c1ccnc(NC(=O)C2CC2)c1; 7.9
CN(C)C(=O)c1ccc(-c2ccncc2NC(=O)c2ccnc(NC(=O)C3CC3)c2)c(F)c1; 24
O=C(Nc1cncc(-c2ccccc2C(F)(F)F)c1)c1ccnc(NC(=O)C2CC2)c1; 12
O=C1CC(C(=O)Nc2cc(C(=O)Nc3cnccc3-c3ccccc3)ccn2)C1; 3.9
O=C(Nc1cncc2c1CCCC2)c1ccnc(NC(=O)C2CC2)c1; 13
Cc1cscc1-c1cncc(NC(=O)c2ccnc(NC(=O)C3CC3)c2)c1; 2.5
CC1CC1C(=O)Nc1cc(C(=O)Nc2cnccc2-c2ccccc2)ccn1 (stereo not shown); 26
COC(=O)c1cncc(NC(=O)c2ccnc(NC(=O)C3CC3)c2)c1; 30
CCCOc1ccccc1-c1cncc(NC(=O)c2ccnc(NC(=O)C3CC3)c2)c1; 4.5
O=C(Nc1cnccc1N1CCCCCC1)c1ccnc(NC(=O)C2CC2)c1; 37
O=C(Nc1nc2cnccc2s1)c1ccnc(NC(=O)C2CC2)c1; 1300

###

target: GSK3α (Homo sapiens, UniProt P49840); assay: biochemical; details: second value of the cell; 250 pM enzyme, 20 uM ATP, 20 hours at room temperature; read-out: GSK3β/α (nM): GSK3α IC50
// reported log10 of IC50 for each item listed
reported metric: log10 of IC50 (log10 of the value in nM)

O=C(Nc1cncc(-c2ccccc2)c1)c1ccnc(NC(=O)C2CCC2)c1; 0.45
CC(C)C(=O)Nc1cc(C(=O)Nc2cnccc2OCCN2CCCC2)ccn1; 1.28
CC(C)C(=O)Nc1cc(C(=O)Nc2cnccc2OCC(F)(F)F)ccn1; -0.46
Cc1ccc(-c2cncc(NC(=O)c3ccnc(NC(=O)C4CC4)c3)c2)cn1; 0.04
O=C(Nc1cncc(-c2ccoc2)c1)c1ccnc(NC(=O)C2CC2)c1; 0.00
O=C(Nc1cncc(F)c1)c1ccnc(NC(=O)C2CC2)c1; 1.20
O=C(Nc1cncs1)c1ccnc(NC(=O)C2CC2)c1; 1.15
CC(C)C(=O)Nc1cc(C(=O)Nc2cnccc2OCC(F)F)ccn1; -0.01
C[C@H]1COCCN1c1ccncc1NC(=O)c1ccnc(NC(=O)C2CC2)c1; -1.15
CC(C)C(=O)Nc1cc(C(=O)Nc2cncc(-c3cc(F)ccc3F)c2)ccn1; 0.15
CC1(C)COCCN1c1ccncc1NC(=O)c1ccnc(NC(=O)C2CC2)c1; -1.00
Cc1cncc(NC(=O)c2ccnc(NC(=O)C3CC3)c2)c1; 0.73
CC(C)C(=O)Nc1cc(C(=O)Nc2cnccc2OCCN2CCOCC2)ccn1; 0.04
CC(C)C(=O)Nc1cc(C(=O)Nc2cncc(-c3ccccc3F)c2)ccn1; 0.34
